Ref: patent US20190315854A1

Molecular target: T1, sIL-6R (soluble IL-6 receptor; SBH Sciences) (human, UniProt P08887 20-365)
T1 construct: also called human IL-6R
T1 sequence: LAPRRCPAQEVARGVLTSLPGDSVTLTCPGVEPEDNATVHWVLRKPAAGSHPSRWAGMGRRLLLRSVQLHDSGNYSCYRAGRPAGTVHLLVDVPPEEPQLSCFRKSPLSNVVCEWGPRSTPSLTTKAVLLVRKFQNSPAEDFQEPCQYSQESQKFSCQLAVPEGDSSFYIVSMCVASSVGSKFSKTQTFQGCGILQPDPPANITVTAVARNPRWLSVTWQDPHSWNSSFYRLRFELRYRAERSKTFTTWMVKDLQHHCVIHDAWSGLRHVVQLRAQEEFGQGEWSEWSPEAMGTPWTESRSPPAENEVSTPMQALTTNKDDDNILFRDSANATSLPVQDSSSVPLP
Assay: SPR (BIAcore 3000), antibody on chip, sIL-6R analyte, 25 C
MEASURED ENDPOINT: Relative Affinity

Using known records, supply Relative Affinity for 238# (antibody, human IgG1, kappa, V domains shown) VH: QVQLQESGPGLVRPSQTLSLTCTVSGYSITSDHAWSWVRQPPGRGLEWIGYISYSGMITYNPSLKSRVTMLRDTSKNQFSLRLSSVTAADTAVYYCARCLARTTAMDYWGQGSLVTVSS VL: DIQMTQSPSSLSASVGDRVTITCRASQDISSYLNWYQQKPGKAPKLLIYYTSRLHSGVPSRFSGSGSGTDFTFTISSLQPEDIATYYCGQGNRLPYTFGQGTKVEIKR
28.5 fold vs 25 (Tocilizumab)

Name the recorded Relative Affinity of the item 234# (antibody, human IgG1, kappa, V domains shown) VH: QVQLQESGPGLVRPSQTLSLTCTVSGYSITSDHAWSWVRQPPGRGLEWIGYISYSGMTTYNPSLKSRVTMLRDTSKNQFSLRLSSVTAADTAVYYCARCLARMTAMDYWGQGSLVTVSS VL: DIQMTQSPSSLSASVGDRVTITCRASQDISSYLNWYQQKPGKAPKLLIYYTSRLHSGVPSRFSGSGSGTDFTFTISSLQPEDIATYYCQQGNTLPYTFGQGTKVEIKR in your answer.
8.5 fold vs 25 (Tocilizumab)

Give the reported Relative Affinity for this binder. 241# (antibody, human IgG1, kappa, V domains shown) VH: QVQLQESGPGLVRPSQTLSLTCTVSGYSITSDHAWSWVRQPPGRGLEWIGYISYSGMTTYNPSLKSRVTMLRDTSKNQFSLRLSSVTAADTAVYYCARCLARMTAIDFWGQGSLVTVSS VL: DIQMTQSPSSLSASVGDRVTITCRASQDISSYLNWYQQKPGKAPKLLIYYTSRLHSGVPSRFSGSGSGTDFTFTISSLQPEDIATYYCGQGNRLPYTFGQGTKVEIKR
15.6 fold vs 25 (Tocilizumab)

// Input: 245# (antibody, human IgG1, kappa, V domains shown) VH: QVQLQESGPGLVRPSQTLSLTCTVSGYSITSDHAWSWVRQPPGRGLEWIGYISYSGMITYNPSLKSRVTMLRDTSKNQFSLRLSSVTAADTAVYYCARTLARMTAMDYWGQGSLVTVSS VL: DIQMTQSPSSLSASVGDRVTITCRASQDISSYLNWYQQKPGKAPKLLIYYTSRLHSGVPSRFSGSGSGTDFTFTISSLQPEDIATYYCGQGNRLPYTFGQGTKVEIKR . Output its Relative Affinity only.
12.6 fold vs 25 (Tocilizumab)

Note down Relative Affinity recorded for 69# (antibody, human IgG1, kappa, V domains shown, also called Sample # 69) VH: QVQLQESGPGLVRPSQTLSLTCTVSGYSITSDHAWSWVRQPPGRGLEWIGFISYSGMTTYNPSLKSRVTMLRDTSKNQFSLRLSSVTAADTAVYYCARCLARTTAIDFWGQGSLVTVSS VL: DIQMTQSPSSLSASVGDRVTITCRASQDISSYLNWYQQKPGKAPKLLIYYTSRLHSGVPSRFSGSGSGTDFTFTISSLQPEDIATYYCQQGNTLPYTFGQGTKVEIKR
11 fold vs 25 (Tocilizumab)

Indicate the recorded Relative Affinity value for this binder: 221# (antibody, human IgG1, kappa, V domains shown) VH: QVQLQESGPGLVRPSQTLSLTCTVSGYSITSDHAWSWVRQPPGRGLEWIGYISYSGMITYNPSLKSRVTMLRDTSKNQFSLRLSSVTAADTAVYYCARSLARTTAIDFWGQGSLVTVSS VL: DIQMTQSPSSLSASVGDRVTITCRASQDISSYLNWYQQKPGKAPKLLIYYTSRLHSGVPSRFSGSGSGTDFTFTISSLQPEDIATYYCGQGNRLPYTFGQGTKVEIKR
4.8 fold vs 25 (Tocilizumab)

Read off the recorded Relative Affinity for 214# (antibody, human IgG1, kappa, V domains shown) VH: QVQLQESGPGLVRPSQTLSLTCTVSGYSITSDHAWSWVRQPPGRGLEWIGYISYSGITTYNPSLKSRVTMLRDTSKNQFSLRLSSVTAADTAVYYCARCLARMTAIDFWGQGSLVTVSS VL: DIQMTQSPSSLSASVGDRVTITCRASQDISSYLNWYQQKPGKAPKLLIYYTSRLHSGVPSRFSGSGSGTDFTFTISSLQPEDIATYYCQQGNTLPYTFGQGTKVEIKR
8.7 fold vs 25 (Tocilizumab)

Using known records, supply Relative Affinity for 226# (antibody, human IgG1, kappa, V domains shown) VH: QVQLQESGPGLVRPSQTLSLTCTVSGYSITSDHAWSWVRQPPGRGLEWIGYISYSGMITYNPSLKSRVTMLRDTSKNQFSLRLSSVTAADTAVYYCARCLARATAMDYWGQGSLVTVSS VL: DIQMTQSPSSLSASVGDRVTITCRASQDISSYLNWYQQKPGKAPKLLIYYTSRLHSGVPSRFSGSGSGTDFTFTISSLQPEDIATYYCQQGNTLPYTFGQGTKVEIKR
31 fold vs 25 (Tocilizumab)

Read off the recorded Relative Affinity for 220# (antibody, human IgG1, kappa, V domains shown, also called Sample # 220) VH: QVQLQESGPGLVRPSQTLSLTCTVSGYSITSDHAWSWVRQPPGRGLEWIGYISYSGMITYNPSLKSRVTMLRDTSKNQFSLRLSSVTAADTAVYYCARSLARMTAMDYWGQGSLVTVSS VL: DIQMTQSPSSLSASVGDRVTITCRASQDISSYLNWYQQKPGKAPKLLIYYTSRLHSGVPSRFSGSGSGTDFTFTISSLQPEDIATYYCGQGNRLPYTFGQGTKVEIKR
6.5 fold vs 25 (Tocilizumab)

Supply recorded Relative Affinity for 215# (antibody, human IgG1, kappa, V domains shown) VH: QVQLQESGPGLVRPSQTLSLTCTVSGYSITSDHAWSWVRQPPGRGLEWIGYISYSGMITYNPSLKSRVTMLRDTSKNQFSLRLSSVTAADTAVYYCARSLARMTAMDYWGQGSLVTVSS VL: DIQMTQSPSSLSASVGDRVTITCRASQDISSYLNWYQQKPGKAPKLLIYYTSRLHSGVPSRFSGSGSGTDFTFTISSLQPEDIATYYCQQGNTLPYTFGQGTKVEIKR here.
3.1 fold vs 25 (Tocilizumab)
